B1: DCAF4 (parent)
chain: TTKCVRQYEGHVNEYAYLPLHVHE

Variants of: B1
ASSAY_DETAILS: protein stability index of a GFP-peptide fusion (GPS, HEK-293T) (PSI 1-6); higher = more stable;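 note: lentivirally expressed fusions sorted by FACS into six bins by GFP to DsRed ratio, PSI derived from sequencing read proportions per bin multiplied by bin number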
TEST_SETTINGS: c terminus: a fixed tail appended
MEASURED_PROPERTY: protein stability index

INSERT INTO assay_data (residue_sequence, experimental_result) VALUES
  ('TTKCVRQYEGHVNEYAYLPLHKHE [V22K]', 3.27),
  ('TTKCVRQYEGHVNEYAYLPLFVHE [H21F]', 1.87),
  ('TTKCVRQYEGHVNHYAYLPLHVHE [E14H]', 2.05),
  ('TTKCVRQYEGHVNEYAYLPLHYHE [V22Y]', 2.43),
  ('ATKCVRQYEGHVNEYAYLPLHVHE [T1A]', 2.67),
  ('TTKCVRQYEGHVNEYAQLPLHVHE [Y17Q]', 3.27),
  ('TTKCARQYEGHVNEYAYLPLHVHE [V5A]', 2.67),
  ('TTKCVRQYEGHVNEYAYTPLHVHE [L18T]', 2.79),
  ('TTKCVRQYEGHANEYAYLPLHVHE [V12A]', 3.03),
  ('TTKCVRQYEGHTNEYAYLPLHVHE [V12T]', 2.85),
  ('TTKCVRQYEGHVNEYAYLWLHVHE [P19W]', 2.57),
  ('TTKCVDQYEGHVNEYAYLPLHVHE [R6D]', 2.87),
  ('TTKCVRQYSGHVNEYAYLPLHVHE [E9S]', 2.04),
  ('TTKCVRQYEGHVNAYAYLPLHVHE [E14A]', 1.85),
  ('TTKCVRQYEGHVNEYAYLPLHCHE [V22C]', 2.54),
  ('TTKCVRQYEGTVNEYAYLPLHVHE [H11T]', 3.25),
  ('TTKCKRQYEGHVNEYAYLPLHVHE [V5K]', 1.99),
  ('TTKCVRQYEGHVNEYAYLPLHVGE [H23G]', 2.76),
  ('TTKCVRQYEGHVNEYAYLPLEVHE [H21E]', 3.27),
  ('TTKCVRQYECHVNEYAYLPLHVHE [G10C]', 2.61),
  ('TTKCVRQYEGHVNEYADLPLHVHE [Y17D]', 4.01),
  ('TTKCVRQYEGHVNEYAYLPLHVVE [H23V]', 2.19),
  ('TTKCVRQYEGHVNEYAYLPSHVHE [L20S]', 3.13),
  ('TTKCVRQYEGHVNEYAYRPLHVHE [L18R]', 2.89),
  ('TTKCVRQYEGHVNEYAYMPLHVHE [L18M]', 2.82),
  ('TTKCVRQYEGHVNLYAYLPLHVHE [E14L]', 1.63),
  ('TTKCVRQYEGHVNYYAYLPLHVHE [E14Y]', 1.64),
  ('TTKCVRQYEGHVNEYAYLPLHFHE [V22F]', 2.01),
  ('TTKCVRQYEGHVNEYAYLMLHVHE [P19M]', 2.47),
  ('TTKCVRQYEGHVNEYAYLCLHVHE [P19C]', 1.84),
  ('TTKCVRQYEGHVNEYAYLPTHVHE [L20T]', 2.85),
  ('TTKCVRQYEGHVNEYAYAPLHVHE [L18A]', 2.92),
  ('TTKCDRQYEGHVNEYAYLPLHVHE [V5D]', 3.34),
  ('TTKCVRQYEGHVNEYAYLPLHVHW [E24W]', 2.67),
  ('TTKCVRQSEGHVNEYAYLPLHVHE [Y8S]', 3.19),
  ('TTKGVRQYEGHVNEYAYLPLHVHE [C4G]', 2.67),
  ('TTKAVRQYEGHVNEYAYLPLHVHE [C4A]', 3.14),
  ('TDKCVRQYEGHVNEYAYLPLHVHE [T2D]', 3.24),
  ('TTKCVRQYEGHGNEYAYLPLHVHE [V12G]', 3.13),
  ('TTKCVRQYEGHDNEYAYLPLHVHE [V12D]', 3.19),
  ('TTKCVRQYEGKVNEYAYLPLHVHE [H11K]', 2.66),
  ('TTKCLRQYEGHVNEYAYLPLHVHE [V5L]', 2.84),
  ('TTKCVRQYEGHVNEYAYLPLQVHE [H21Q]', 2.66),
  ('TTKCVRQMEGHVNEYAYLPLHVHE [Y8M]', 2.89),
  ('TTKCVRQYEGHVNEYAYLPLWVHE [H21W]', 1.75),
  ('TTKCVCQYEGHVNEYAYLPLHVHE [R6C]', 2.53);
